Molecular target: Opioid receptor (mu and kappa) (Cavia porcellus) (UniProt P41144+P97266)
Sequence (P41144 whole entry, looked up): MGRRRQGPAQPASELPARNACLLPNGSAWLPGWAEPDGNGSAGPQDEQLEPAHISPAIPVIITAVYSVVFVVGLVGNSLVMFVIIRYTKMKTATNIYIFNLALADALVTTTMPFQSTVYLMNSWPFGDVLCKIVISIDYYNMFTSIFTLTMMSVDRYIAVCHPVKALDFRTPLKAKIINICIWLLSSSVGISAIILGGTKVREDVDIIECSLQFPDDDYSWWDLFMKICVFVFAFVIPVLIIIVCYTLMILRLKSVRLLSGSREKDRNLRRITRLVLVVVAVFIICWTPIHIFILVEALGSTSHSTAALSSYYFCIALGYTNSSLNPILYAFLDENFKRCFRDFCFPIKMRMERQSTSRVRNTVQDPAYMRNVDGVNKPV
Sequence (P97266 whole entry, looked up): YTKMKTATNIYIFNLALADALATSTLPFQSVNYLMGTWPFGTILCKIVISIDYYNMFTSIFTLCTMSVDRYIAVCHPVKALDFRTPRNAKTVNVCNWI
Assay: Ratio of IC50 ethylketazocine and antagonist binding to opioid receptor
Type: protein assay
reported property: Ratio

Recorded results for 4 compounds are shown here.
test_smiles=CN1CC[C@]23c4c5ccc(O)c4O[C@H]2c2[nH]c4c(c2C[C@H]3[C@H]1C5)C[C@H]1[C@H]2Cc3ccc(O)c5c3[C@@]1(CCN2C)[C@H]4O5 result=0.79
test_smiles=COc1ccc2c3c1O[C@H]1c4[nH]c5c(c4C[C@@]4(O)[C@@H](C2)N(CC2CC2)CC[C@]314)C[C@@]1(O)[C@H]2Cc3ccc(OC)c4c3[C@@]1(CCN2CC1CC1)[C@H]5O4 result=3.8
test_smiles=COc1ccc2c3c1O[C@H]1c4[nH]c5c(c4C[C@H]4[C@@H](C2)N(C)CC[C@]314)C[C@H]1[C@H]2Cc3ccc(OC)c4c3[C@@]1(CCN2C)[C@H]5O4 result=0.43
test_smiles=CC(=O)Oc1ccc2c3c1O[C@H]1c4[nH]c5c(c4C[C@@]4(OC(C)=O)[C@@H](C2)N(CC2CC2)CC[C@]314)C[C@@]1(OC(C)=O)[C@H]2Cc3ccc(OC(C)=O)c4c3[C@@]1(CCN2CC1CC1)[C@H]5O4 result=1.6

Turning now to a further record.
IN: Give the reported value of Ratio for this record: `COc1ccc2c3c1O[C@H]1c4[nH]c5c(c4C[C@@]4(O)[C@@H](C2)N(CC2CC2)CC[C@]314)C[C@@]1(O)[C@H]2Cc3ccc(O)c4c3[C@@]1(CCN2CC1CC1)[C@H]5O4`
OUT: 153
